Each record here notes measured fold change (FC).
- Species: Mus musculus
- Assay comment: Stimulation of prostanoid receptor-mediated cAMP-[14C] production in Charles River CD-1 mouse ovary at 1 ug/ml preincubated with adenine-8-[14C] for 1 hr followed by compound addition measured after 30 mins in presence of theophylline relative to control
- Assay type: tissue-based
- Condition parameters: Female gonad

Compound	Value measured
CCCCC[C@H](O)CCC1CCC(=O)[C@@H]1CCCCCCC(=O)O (some centres undefined)	10

May I ask what fold change (FC) has been recorded for CCCCCC(O)CCCC(CCCCCCC(=O)O)C(C)=O (racemic) ?
2

Thanks! And CCCCC[C@H](O)CCCN(CCCCCCC(=O)O)S(C)(=O)=O ?
8

Thanks! And CCCCC[C@H](O)/C=C/[C@H]1[C@H](O)CC(=O)[C@@H]1CCCCCCC(=O)O [ALPROSTADIL] ?
54

---

- Species: Mus musculus
- Assay comment: Stimulation of prostanoid receptor-mediated cAMP-[14C] production in Charles River CD-1 mouse ovary at 10 ug/ml preincubated with adenine-8-[14C] for 1 hr followed by compound addition measured after 30 mins in presence of theophylline relative to control
- Assay type: tissue-based
- Condition parameters: Female gonad
Measured quantity: fold change (FC)

Compound	Measured quantity	Value measured
CCCCCC(O)CCCN(CCCCCCC(=O)O)S(C)(=O)=O (racemic)	fold change (FC)	40
CCCCCC(O)CCCN(CC#CCCCC(=O)O)S(C)(=O)=O (racemic)	fold change (FC)	21
CCCCCC(O)CCCN(C/C=C\CCCC(=O)O)S(C)(=O)=O (racemic)	fold change (FC)	16
CCCCCC(O)CCCC(CCCCCCC(=O)O)C(C)=O (racemic)	fold change (FC)	11
CCCCC[C@@H](O)CCCN(CCCCCCC(=O)O)S(C)(=O)=O	fold change (FC)	23
CCCCCC(O)C#CCN(CCCCCCC(=O)O)S(C)(=O)=O (racemic)	fold change (FC)	21
CCCCC[C@H](O)/C=C/[C@H]1[C@H](O)CC(=O)[C@@H]1CCCCCCC(=O)O	fold change (FC)	60
CS(=O)(=O)N(CCCCCCC(=O)O)CCCC1(O)CCCCC1	fold change (FC)	3
CCCCC[C@H](O)CCC1CCC(=O)[C@@H]1CCCCCCC(=O)O (stereo partly drawn)	fold change (FC)	25
CCCCCCCCCN(CCCCCCC(=O)O)S(C)(=O)=O	fold change (FC)	13

May I ask what fold change (FC) has been recorded for CCCCC[C@H](O)CCCN(CCCCCCC(=O)O)S(C)(=O)=O ?
54

Thanks! And CCCCCC(O)CCCN(CCCCOCC(=O)O)S(C)(=O)=O (racemic) ?
24

Thanks! And CCCCCC(O)/C=C/CN(C/C=C\CCCC(=O)O)S(C)(=O)=O (racemic) ?
11

---

Each record here notes measured fold change (FC).
- Organism: Mus musculus
- Assay comment: Stimulation of prostanoid receptor-mediated cAMP-[14C] production in Charles River CD-1 mouse ovary at 100 ug/ml preincubated with adenine-8-[14C] for 1 hr followed by compound addition measured after 30 mins in presence of theophylline relative to control
- Type: tissue-based
- Condition parameters: Female gonad
Would you mind answering with just the numeric figure?

Compound	fold change (FC)
CCCCCC(O)/C=C/CN(C/C=C\CCCC(=O)O)S(C)(=O)=O (racemic)	27

May I ask what fold change (FC) has been recorded for CCCCCC(O)CCCN(CCCCCCC(=O)O)S(C)(=O)=O (racemic) ?
61

Thanks! And CCCCCC(O)CCCN(CCCCOCC(=O)O)S(C)(=O)=O (racemic) ?
38

Thanks! And CCCCC[C@H](O)/C=C/[C@H]1[C@H](O)CC(=O)[C@@H]1CCCCCCC(=O)O ?
62

Thanks! And CS(=O)(=O)N(CCCCCCC(=O)O)CCCC1(O)CCCCC1 ?
10

Thanks! And CCCCCC(O)CCCN(CC#CCCCC(=O)O)S(C)(=O)=O (racemic) ?
39

Thanks! And CCCCCC(O)CCCC(CCCCCCC(=O)O)C(C)=O (racemic) ?
23

---

- Species on record: Mus musculus
- Assay comment: Stimulation of prostanoid receptor-mediated cAMP-[14C] production in Charles River CD-1 mouse ovary at 25 ug/ml preincubated with adenine-8-[14C] for 1 hr followed by compound addition measured after 30 mins in presence of theophylline relative to control
- Assay type: tissue-based
- Condition parameters: Female gonad
Measured quantity: fold change (FC)
Would you mind answering with just the numeric figure?

Past entries and their recorded results:
Molecule	Value measured
CCCCCC(O)CCCN(CCCCCCC(=O)O)S(C)(=O)=O (racemic)	56
CCCCC[C@H](O)CCC1CCC(=O)[C@@H]1CCCCCCC(=O)O (stereo partly drawn)	26
CCCCCC(O)CCCN(CC#CCCCC(=O)O)S(C)(=O)=O (racemic)	30
CCCCCC(O)CCCN(CCCCOCC(=O)O)S(C)(=O)=O (racemic)	27
CCCCC[C@H](O)CCCN(CCCCCCC(=O)O)S(C)(=O)=O	55

May I ask what fold change (FC) has been recorded for CS(=O)(=O)N(CCCCCCC(=O)O)CCCC1(O)CCCCC1 ?
5

Thanks! And CCCCC[C@H](O)/C=C/[C@H]1[C@H](O)CC(=O)[C@@H]1CCCCCCC(=O)O [ALPROSTADIL] ?
62

Thanks! And CCCCCC(O)C#CCN(CCCCCCC(=O)O)S(C)(=O)=O (racemic) ?
21

Thanks! And CCCCCC(O)CCCN(C/C=C\CCCC(=O)O)S(C)(=O)=O (racemic) ?
18

Thanks! And CCCCCC(O)CCCC(CCCCCCC(=O)O)C(C)=O (racemic) ?
14

---

- Species on record: Mus musculus
- Assay comment: Stimulation of prostanoid receptor-mediated cAMP-[14C] production in Charles River CD-1 mouse ovary at 100 ug/ml preincubated with adenine-8-[14C] for 1 hr followed by compound addition measured after 30 mins in presence of theophylline relative to control
- Type: tissue-based
- Condition parameters: Female gonad
Each record here notes measured fold change (FC).

Compound	fold change (FC)
CCCCCC(O)CCCN(C/C=C\CCCC(=O)O)S(C)(=O)=O (racemic)	37
CCCCCC(O)C#CCN(CCCCCCC(=O)O)S(C)(=O)=O (racemic)	36

May I ask what fold change (FC) has been recorded for CCCCC[C@H](O)CCC1CCC(=O)[C@@H]1CCCCCCC(=O)O (stereo partly drawn) ?
19

---

- Organism: Mus musculus
- Assay comment: Stimulation of prostanoid receptor-mediated cAMP-[14C] production in Charles River CD-1 mouse ovary at 25 ug/ml preincubated with adenine-8-[14C] for 1 hr followed by compound addition measured after 30 mins in presence of theophylline relative to control
- Format: tissue-based
- Condition parameters: Female gonad
Each record here notes measured fold change (FC).
Would you mind answering with just the numeric figure?

May I ask what fold change (FC) has been recorded for CCCCCCCCCN(CCCCCCC(=O)O)S(C)(=O)=O ?
14

Thanks! And CCCCCC(O)/C=C/CN(C/C=C\CCCC(=O)O)S(C)(=O)=O (racemic) ?
19

Thanks! And CCCCC[C@@H](O)CCCN(CCCCCCC(=O)O)S(C)(=O)=O ?
25

Data provenance: ChEMBL document CHEMBL3272123
